tested on: M21; assay: Antiproliferative activity against human M21 cells after 48 hrs by sulforhodamine B assay; assay type: functional, cell-based; conditions: M21, 48 h
pIC50: −log10 of the molar value.

- smiles: "O=C1NCCN1c1ccc(S(=O)(=O)Oc2ccc(Cl)cc2)cc1"
  test system: "M21"
  censoring sign: "="
  pIC50: 7.24
- smiles: "Cc1ccccc1OS(=O)(=O)c1ccc(N2CCNC2=O)cc1"
  test system: "M21"
  censoring sign: "="
  pIC50: 7.59
- smiles: "COc1ccc(/C=C\\c2cc(OC)c(OC)c(OC)c2)cc1O"
  test system: "M21"
  censoring sign: "="
  pIC50: 8.37
- smiles: "Cc1ccc(C)c(OS(=O)(=O)c2ccc(N3CCNC3=O)cc2)c1"
  test system: "M21"
  censoring sign: "="
  pIC50: 8.07
- smiles: "O=C(NCCCl)Nc1cccc(CCCCCO)c1"
  test system: "M21"
  censoring sign: "="
  pIC50: 6.64
- smiles: "Cc1ccc(OS(=O)(=O)c2ccc(N3CCNC3=O)cc2)cc1"
  test system: "M21"
  censoring sign: "="
  pIC50: 7.03
- smiles: "O=C1NCCN1c1ccc(S(=O)(=O)Oc2ccccc2F)cc1"
  test system: "M21"
  censoring sign: "="
  pIC50: 7.47
- smiles: "O=C1NCCN1c1ccc(S(=O)(=O)Oc2ccc([N+](=O)[O-])cc2)cc1"
  test system: "M21"
  censoring sign: "="
  pIC50: 6.24
- smiles: "CCc1ccccc1OS(=O)(=O)c1ccc(N2CCCNC2=O)cc1"
  test system: "M21"
  censoring sign: "<"
  pIC50: 6.00
- smiles: "COc1cc(OS(=O)(=O)c2ccc(N3CCCNC3=O)cc2)cc(OC)c1OC"
  test system: "M21"
  censoring sign: "="
  pIC50: 6.62
- smiles: "Cc1ccc(OS(=O)(=O)c2ccc(N3CCCNC3=O)cc2)c(C)c1"
  test system: "M21"
  censoring sign: "<"
  pIC50: 6.00
